- Tgt: cell surface-expressed H3N2 WN/05 HA trimer (influenza A virus A/Wisconsin/67/2005 (H3N2))
- Experimental Protocol: flow cytometry, HA-expressing 293T
The threshold is inclusive: max. MFI of exactly 200 MFI counts as true (1); values below receive false (0).

binder="S01 (antibody, V domains shown) VH: EVQLVESGGGLVQPGGSLRLSCAASGFTINNYGIHWVRQAPGKGLEWVASIWPSGGYTSYADSVKGRFTISADTSKNTAYLQMNSLRAEDTAVYYCARFGLGDYDIMDYWGQGTLVTVSS VL: DIQMTQSPSSLSASVGDRVTITCRASQDVWGYVAWYQQKPGKAPKLLISFPSSLYSGVPSRFSGSGSGTDFTLTISSLQPEDFATYYCQQYYDGPVTFGQGTKVEIKR" category="false (0)"
binder="S11 (antibody, V domains shown) VH: EVQLVESGGGLVQPGGSLRLSCAASGFTIDNGGIHWVRQAPGKGLEWVAWIGPYGGSTSYADSVKGRFTISADTSKNTAYLQMNSLRAEDTAVYYCARFGFGLHDLMDYWGQGTLVTVSS VL: DIQMTQSPSSLSASVGDRVTITCRASQDVYSWVAWYQQKPGKAPKLLIYYSSFLYSGVPSRFSGSGSGTDFTLTISSLQPEDFATYYCQQYYNGPLTFGQGTKVEIKR" category="true (1)"
binder="P44 (antibody, V domains shown) VH: EVQLVESGGGLVQPGGSLRLSCAASGFTIDGWWIHWVRQAPGKGLEWVAGIWPFGGFTSYADSVKGRFTISADTSKNTAYLQMNSLRAEDTAVYYCARSYSGYSGDYWGQGTLVTVSS VL: DIQMTQSPSSLSASVGDRVTITCRASQDVNNNVAWYQQKPGKAPKLLIYWSSSLYSGVPSRFSGSGSGTDFTLTISSLQPEDFATYYCQQYYNFPVTFGQGTKVEIKR" category="false (0)"
binder="P14 (antibody, V domains shown) VH: EVQLVESGGGLVQPGGSLRLSCAASGFTIGDFGIHWVRQAPGKGLEWVAGIWPFGGYTYYADSVKGRFTISADTSKNTAYLQMNSLRAEDTAVYYCARFVNWDGDYMDYWGQGTLVTVSS VL: DIQMTQSPSSLSASVGDRVTITCRASQDVGFYVAWYQQKPGKAPKLLISWSSYLYSGVPSRFSGSGSGTDFTLTISSLQPEDFATYYCQQYYNYPLTFGQGTKVEIKR" category="false (0)"
binder="S48 (antibody, V domains shown) VH: EVQLVESGGGLVQPGGSLRLSCAVSGFTIGDGSIHWVRQAPGKGLEWVASIGPYGGSTYYADSVKGRFTISADTSKNTAYLQMNSLRAEDTAVYYCARFHYGYWNNMDYWGQGTLVTVSS VL: DIQMTQSPSSLSASVGDRVTITCRASQDVGWWVAWYQQKPGKAPKLLIYGTRWLYSGVPSRFSGSGSGTDFTLTISSVQPEDFATYYCQQYYSGPITFGQGTKVEIKR" category="false (0)"
